System: Lefty1
Assay: Lefty1 binders on small-molecule microarrays, primary screen, biochemical, small-molecule microarray, 635/667 nm fluorescence (AID 1139)
Details: small-molecule microarray binding, fluorescence 635/667; higher = more signal
Reported composite z-score values are given for each entry in this list.
measurement-label: composite z-score

[[record]]
compound = "CN(C)C(=O)C1N=C(c2ccc(OCCCO)cc2)N(c2ccccc2)O1 (stereo not given)"
observed_value = 1.29

[[record]]
compound = "CCCCC(O)C1C=CC2C(=O)N(c3ccccc3)C(=O)C2N1Nc1ccc(C(C)C)cc1 (stereo not given)"
observed_value = 0.451

[[record]]
compound = "O=C1NC(=O)C2C1C=CC(C(O)CCc1ccccc1)N2Nc1ccc(Cl)cc1Cl (stereo not given)"
observed_value = -0.556

[[record]]
compound = "COc1ccc(-c2nc(-c3ccccc3)c3c(c2C)CO[Si]3(C(C)C)C(C)C)cn1"
observed_value = 0.402

[[record]]
compound = "COc1cc2c(cc1OC)CN(C(=O)[C@@H]1[C@H]3C(=O)O[C@H](c4ccccc4)[C@H](c4ccccc4)N3[C@H](c3ccc(OCCO)cc3)[C@@]13C(=O)Nc1ccc(C#CC4(O)CCCCCC4)cc13)CC2"
observed_value = 1.38

